# system_tested: RUNX1 (UniProt Q01196)
# Sequence (Q01196 whole entry): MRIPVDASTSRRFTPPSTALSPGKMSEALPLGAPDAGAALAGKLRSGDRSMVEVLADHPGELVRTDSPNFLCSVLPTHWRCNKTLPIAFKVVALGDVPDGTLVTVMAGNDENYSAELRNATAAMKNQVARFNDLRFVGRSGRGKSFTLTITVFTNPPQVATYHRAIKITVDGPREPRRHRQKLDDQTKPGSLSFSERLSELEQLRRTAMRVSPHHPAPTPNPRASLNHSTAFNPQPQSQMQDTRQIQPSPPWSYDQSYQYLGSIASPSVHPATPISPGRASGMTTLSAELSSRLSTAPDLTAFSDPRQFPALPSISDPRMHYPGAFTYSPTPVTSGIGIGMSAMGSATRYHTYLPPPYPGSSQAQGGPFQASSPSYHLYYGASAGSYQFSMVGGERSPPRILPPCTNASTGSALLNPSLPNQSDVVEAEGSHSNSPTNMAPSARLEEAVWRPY
# test_method_notes: RUNX1 binding intensity (PBM fluorescence) in presence of ETS1, normalised to RUNX1-only experiment (arbitrary fluorescence units); higher = stronger binding
# particulars: RUNX1 concentration 2 nM; ETS1 concentration 25 nM
RUNX1 binding intensity values by entry
assay_readout: RUNX1 binding intensity

>>> df
                            biosequence  measurement
0  GCTGTGCCGGCAGGATGTGGTCTTTGGTTTCTGTTT         3250
1  TGCAGCGCATCCTGGGACGTGCGGGCGGTGCATGAG          923
2  CCCTCATCTTCCTGCTTCAGGCAGCTGTGGTTTACC         1660
3  CACCCCCCCAGTGCAGGAAGTGGTTTTCGAGGGCAG         1790
4  CTGTCATCTTCCTGACAGCACGCCCACAAAGGACCA          916
5  CGGGCGAGCGCAGGATGCGGTTGTCGAACGCGCGGC         1100

====

ETS1 binding intensity values by entry
# system_tested: ETS1 (UniProt P14921)
# Sequence: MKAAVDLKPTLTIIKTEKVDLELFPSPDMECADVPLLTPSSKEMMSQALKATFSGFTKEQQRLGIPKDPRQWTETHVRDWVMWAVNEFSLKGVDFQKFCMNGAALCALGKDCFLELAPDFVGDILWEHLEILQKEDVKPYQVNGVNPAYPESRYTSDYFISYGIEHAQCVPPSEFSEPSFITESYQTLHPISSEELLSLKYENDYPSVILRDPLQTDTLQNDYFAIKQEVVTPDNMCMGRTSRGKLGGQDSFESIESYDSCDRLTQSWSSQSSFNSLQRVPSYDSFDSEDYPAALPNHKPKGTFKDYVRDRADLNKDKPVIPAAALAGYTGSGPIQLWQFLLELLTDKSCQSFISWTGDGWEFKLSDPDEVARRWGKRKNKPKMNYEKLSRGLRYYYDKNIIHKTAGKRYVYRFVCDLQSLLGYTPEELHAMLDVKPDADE
# test_method_notes: ETS1 binding intensity (PBM fluorescence), ETS1 alone (arbitrary fluorescence units); higher = stronger binding
# particulars: ETS1 concentration 1 nM; RUNX1 concentration 0 nM
assay_readout: ETS1 binding intensity

>>> df
                            biosequence          system_tested  measurement
0  CGATGCTTCCGGCCTCCTATTGGGTGGTTTCTTGGC  ETS1 (UniProt P14921)          895
1  GACAGACCTTAGGAAGTCGCGGTTTCATCAGGGCTT  ETS1 (UniProt P14921)          422
2  TCTGGGACAGGAAAGACTTGTGGTTACTGCTGTTGA  ETS1 (UniProt P14921)          808
3  TGGGATTCTCACTTCCGATCAGCGGTCCTGAACCCG  ETS1 (UniProt P14921)          707
4  GGGCAGGAAGGAAGAGGGCTCCTCCCCACAAGCTCT  ETS1 (UniProt P14921)          437

====

# system_tested: RUNX1 (UniProt Q01196)
# test_method_notes: TF binding intensity (PBM fluorescence), negative control probe (arbitrary fluorescence units); higher = stronger binding
Decide by TF binding intensity: equal to or exceeding 900 means fulfilled, less means not fulfilled.

                                biosequence     class_name
0  GGTCCCAGGAGAGGGGTTCCGGGGTGAAAGAGTGAG (protein concentration 2 nM)      fulfilled
1  AGGAGTTTGCTCATCCTTCCGGATCCAAAGGCTGCG (protein concentration 2 nM)  not fulfilled
2  AGGAGGAGATGGGACAGGAAGGAATAGATGGGAGCA (protein concentration 2 nM)      fulfilled
3  ACGCTGCGCATGCGCCGGAAGTTGCAGCCGTGAAGC (protein concentration 2 nM)  not fulfilled
4  ACTACCCTCCGCCCTCTTCCGCCGCCGCCGCCGCCT (protein concentration 2 nM)      fulfilled
5  GGGAGAGATGGGGCGCGGAAGGAACGAGGCGGGACG (protein concentration 2 nM)      fulfilled
